Values were extracted from patent US12162884B2.

Catalogue of % Area readings, one per entry.
- assay.comment: Stability studies at 40° C./75% RH (HPLC)
- Format: physicochemical
- condition.description: 2 Weeks, HPLC

compound: CC(C)c1cnn2c(N[C@@H]3CCc4[nH]c5ccccc5c4C3)nc(-c3cncc(F)c3)nc12 [Compound 4 Form A]
% Area: 94.20 % Area
//
compound: CC(C)c1cnn2c(N[C@@H]3CCc4[nH]c5ccccc5c4C3)nc(-c3cncc(F)c3)nc12.CCS(=O)(=O)O [Compound 1 Form B]
% Area: 99.53 % Area
//
compound: CC(C)c1cnn2c(N[C@@H]3CCc4[nH]c5ccccc5c4C3)nc(-c3cncc(F)c3)nc12 [Compound 2 Form A]
% Area: 98.30 % Area
//
compound: CC(C)c1cnn2c(N[C@@H]3CCc4[nH]c5ccccc5c4C3)nc(-c3cncc(F)c3)nc12.CS(=O)(=O)O [Compound 3 Form B]
% Area: 69.61 % Area
//
compound: CC(C)c1cnn2c(N[C@@H]3CCc4[nH]c5ccccc5c4C3)nc(-c3cncc(F)c3)nc12 [Compound A Form B]
% Area: 99.05 % Area
